Recorded remaining activity at 1 µM for the following compounds
Molecular target: MPO (Homo sapiens, UniProt P05164)
Construct: made in house
Sequence (P05164 49-745): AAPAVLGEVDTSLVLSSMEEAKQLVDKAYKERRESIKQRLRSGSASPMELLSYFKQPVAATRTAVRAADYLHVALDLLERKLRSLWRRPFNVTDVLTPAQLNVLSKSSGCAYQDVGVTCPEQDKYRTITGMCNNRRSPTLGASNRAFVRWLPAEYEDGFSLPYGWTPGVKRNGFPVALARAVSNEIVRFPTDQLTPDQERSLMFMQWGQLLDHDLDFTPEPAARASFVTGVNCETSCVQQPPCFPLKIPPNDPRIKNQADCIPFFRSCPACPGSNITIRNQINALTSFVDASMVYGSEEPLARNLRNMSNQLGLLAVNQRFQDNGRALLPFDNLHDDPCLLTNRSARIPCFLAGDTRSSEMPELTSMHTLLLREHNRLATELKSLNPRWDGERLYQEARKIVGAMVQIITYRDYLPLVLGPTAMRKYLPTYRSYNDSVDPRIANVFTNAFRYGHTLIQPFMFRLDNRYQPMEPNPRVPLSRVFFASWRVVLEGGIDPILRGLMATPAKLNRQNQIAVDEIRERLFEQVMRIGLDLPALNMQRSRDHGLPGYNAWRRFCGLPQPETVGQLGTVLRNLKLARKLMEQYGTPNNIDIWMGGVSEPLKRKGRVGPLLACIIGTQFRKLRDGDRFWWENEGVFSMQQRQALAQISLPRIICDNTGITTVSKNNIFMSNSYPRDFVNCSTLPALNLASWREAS
Experiment: Inhibition of LDL oxidation by MPO, ELISA with Mab AG9
Format: biochemical
Details: 5 min, pH 7.2, compound 1000 nM; MPO 1 μg/ml, LDL 1000 μg/ml, pH 7.2, 37° C., 5 min; mean of six measurements; read-out: LDL oxidation (%)
Structures can show the parent of a compound that is named as a salt.
Kindly answer with a numeric value in %, unit omitted.

Here is how some compounds turned out for remaining activity at 1 µM.
Lookup: Which remaining activity at 1 µM value is on record for NCCCCCc1c[nH]c2ccc(F)cc12 [Compound K, oxalate] ?
Found: 3.2

Lookup: Need remaining activity at 1 µM of CN(C)CCCc1c[nH]c2ccc(F)cc12 , thanks.
Found: 8.4

Lookup: Consider the compound shown here: NCCCCc1c[nH]c2ccc(F)cc12 [Compound C, oxalate] What is its recorded remaining activity at 1 µM?
Found: 6.1

Lookup: Sample NCCCc1c[nH]c2ccc(F)cc12 [Compound B, 3-(3-Aminopropyl)-5-fluoro-[1H]-indole] — what was its remaining activity at 1 µM?
Found: 9

Others:
Lookup: Consider the compound NCCCCCCc1c[nH]c2ccc(F)cc12 [Compound L, oxalate] and give its measured remaining activity at 1 µM.
Found: 18.2
